Value source: patent US20250145722A1

- system tested: T1, human Galectin-3 (Gal3), full-length recombinant (human, UniProt P17931 2-250)
- T1 construct: treated here as one molecule; also called hGAL3; hGal3
- T1 sequence (P17931 2-250 limits assumed): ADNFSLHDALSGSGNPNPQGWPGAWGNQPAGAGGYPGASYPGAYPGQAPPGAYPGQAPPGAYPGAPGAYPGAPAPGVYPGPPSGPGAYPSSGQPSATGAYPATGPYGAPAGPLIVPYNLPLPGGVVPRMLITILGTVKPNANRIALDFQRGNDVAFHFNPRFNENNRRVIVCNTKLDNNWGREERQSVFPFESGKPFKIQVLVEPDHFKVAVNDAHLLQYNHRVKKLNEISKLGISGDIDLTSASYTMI
- procedure details: blocking ELISA, Gal3 coated, biotin-Tau aggregates
Give measured % blocking of Gal3-Tau aggregates binding for each item. Keep answers brief.

Task item: % blocking of Gal3-Tau aggregates binding for F846C.1B2 (antibody, human IgG4 S228P, kappa, V domains shown, also called 846.1B2) VH: QIQLVQSGPELKKPGETVKISCKASGYTFTNYGMNWVKQAPGKGLKWMGWINTYTGEPSYADDFKGRFAFSLETSASTAYLQINNLKNEDMATYFCARWGGYAGDYYAMDFWGQGTSVTVSS VL: NIWLTQSPSSLAVSAGEMVTMTCKSSQSVLYSSNQKNYLAWYQQKPGQSPKLLIYWASTRESGVPDRFTGSGSGTDFSLTISSVQAEDLAVYYCHQYLSSLTFGAGTKLELKR ?
Reply: > 90%

Task item: // % blocking of Gal3-Tau aggregates binding lookup, key: 13G4.2F8 (antibody, human IgG4 S228P, kappa, V domains shown) VH: QVQLQQPGAELVKPGASVKLSCKASGYTFTSYWMHWVKQRPGQGLEWIGMIHPNSGSTDYNEKFKNKATLNVDKSSSTAYIQLSSLTSEDSAVYYCTRWGIYYYARDYWGQGTTLTVSS VL: DIVMTQSQKFMSTSVGERVSITCKASQNVGTNVAWYQQKAGQSLELLIYGASNRHTGVPDRFTGSGSGTDFTLTITNVQSEDMTNYFCEQYSNFPLTFGAGTKLELKR
Reply: < 50%

Task item: // query % blocking of Gal3-Tau aggregates binding value for entry TB006 (antibody, V domains shown, Humanized variant derived from murine 4A11.2B5; also called 4A11.H3L1; IMT006) VH: QVQLVQSGAEVKKPGASVKVSCKASGYSFTNYYMHWVRQAPGQRLEWMGWIYPGSGNTNYNEKFQGRVTITADTSASTAYMELSSLRSEDTAVYYCSTAPGGFDVWGQGTTVTVSS VL: DIVMTQTPLSLSVTPGQPASISCKSSKSLLHSDGITYLYWYLQKPGQSPQLLIYRMSNLASGVPDRFSGSGSGTDFTLKISRVEAEDVGVYYCAQMLEFPLTFGQGTKLEIKR
Reply: > 90%
